assay: Cycloheximide Counterscreen for Small Molecule Inhibitors of Shiga Toxin; settings: cell reporter, cycloheximide protein synthesis inhibition counterscreen; also: read at 38.3 µM for the half of the compounds with a filed dose
In all, about 300,000 compounds went through this assay and about 37,000 (12%) were called active. Rule as the data show it: active = max response mostly above about 13% (no sharp cut-off); inactive = mostly below about 14%. The full list was thinned out, with actives kept by preference.
Outcomes: active, inactive

# compound, label
records = [
    ("CN(C(=O)CC1C(=O)NCCN1Cc1ccc(F)cc1Cl)C1CCCCC1 (stereo not drawn)", "inactive"),
    ("COc1ccccc1-n1nnnc1S(=O)(=O)Cc1ccc(Cl)cc1", "active"),
    ("CC(C)Oc1ccc(CN2CCC(n3nccc3NC(=O)c3cccnc3)CC2)cc1", "inactive"),
    ("Cc1ccc(-c2nc(-c3ccncc3)no2)c(C)c1", "active"),
    ("Cc1ccc2nc(-c3ccncc3)cc(C(=O)Nc3ccncc3)c2c1", "inactive"),
    ("CC(=O)Nc1ccc(CC#N)cc1", "inactive"),
    ("COc1ccc(C(=O)CSc2nnc(-c3ccco3)o2)cc1", "inactive"),
    ("CN(c1ccccc1)S(=O)(=O)c1ccc(NC(=O)COc2ccccc2)cc1", "inactive"),
    ("N#CCc1ccc(NC(=O)c2ccccc2C(=O)Nc2ccc(CC#N)cc2)cc1", "active"),
    ("Cc1cccc(OCC(O)CN2CCN(S(=O)(=O)c3ccc(C)cc3C)CC2)c1 (stereo not drawn)", "inactive"),
    ("COc1cccc(CNc2nc(C(F)(F)F)nc3ccccc23)c1", "inactive"),
    ("COc1ccc(CN2CC(C(=O)NC3CCCCC3)CC2=O)cc1 (stereo not drawn)", "inactive"),
    ("COc1ccccc1CNC(=O)c1ccc(CS(=O)(=O)c2ccccc2)o1", "inactive"),
    ("O=c1c(-c2ccc(Cl)cc2)[n+]([O-])c2ccccc2n1OCc1nc2ccccc2[nH]1", "active"),
    ("Cc1ccc(-c2noc(CSc3nnc(-c4ccncc4)n3-c3ccc(F)cc3)n2)cc1", "inactive"),
    ("CC(C)(C)NC(=O)c1cccc(NC(=O)Cc2ccc(Br)cc2)c1", "inactive"),
    ("Cn1c2ccccc2c(=O)c2c(=O)n(Cc3ccco3)c(COc3ccccc3)nc21", "inactive"),
    ("Cc1cccc(CC(=O)N2CCN=C2SCc2ccc([N+](=O)[O-])cc2)c1", "inactive"),
    ("COc1cccc(CNc2ncc(-c3ccccc3)n2C)c1", "active"),
    ("Cc1cccc(-c2nnc(SCC(=O)O)n2Cc2ccccc2)c1", "inactive"),
    ("COc1ccccc1C(=O)NC(CCSC)C(=O)NNC(=O)c1csc(N2CCOCC2)n1 (stereo not drawn)", "inactive"),
    ("COc1ccccc1N1CCN(S(=O)(=O)c2ccc(Cl)cc2)CC1", "inactive"),
    ("Cc1ccc(CCCOC(=O)C[N+]2(C)CCCC2)cc1", "inactive"),
]

* * *

experiment: Cycloheximide Counterscreen for Small Molecule Inhibitors of Shiga Toxin; conditions: cell reporter, cycloheximide protein synthesis inhibition counterscreen; also: read at 38.3 µM for the half of the compounds with a filed dose
Among all 300,000 compounds or so, about 37,000 (12%) were called active. No stated cut-off is given here; in the data, active means max response mostly above about 13% (no sharp cut-off); inactive means mostly below about 14%. The sample as a whole holds a higher share of actives than the screen did.
Labels: label 1 for active, label 0 for inactive

# molecule, label
data = [
    ("Cn1cccc1C(=O)Nc1nccs1", "label 1"),
    ("CCOc1cccc2c1OC1(CCCCC1)N1N=C(c3cccnc3)CC21 (stereo unspecified)", "label 1"),
    ("CC(NC(=O)C(=O)Nc1nccs1)c1ccccc1 (stereo unspecified)", "label 0"),
    ("Cc1nnc(Sc2nc3c(c(=O)[nH]c(=O)n3C)n2Cc2ccccc2)s1", "label 0"),
    ("COc1ccccc1N=Cc1c(O)c2ccccc2oc1=O", "label 0"),
    ("O=C(O)c1ccccc1-c1ccccc1C(=O)Nc1nccs1", "label 0"),
    ("CC1Sc2ccc(S(=O)(=O)CCC(=O)NCc3ccccc3Cl)cc2NC1=O (stereo unspecified)", "label 0"),
    ("CCOCCCN1C(=O)C2C(C(=O)Nc3ccc(OCC)cc3)C3C=CC2(O3)C1C(=O)NC1CCCCC1 (stereo unspecified)", "label 0"),
    ("c1cncc(-c2nnc3n2C2(CCCCC2)Cc2ccccc2-3)c1", "label 0"),
    ("CCOc1ccccc1C1CC(c2cccc(NS(C)(=O)=O)c2)=NN1C(=O)c1ccccc1 (stereo unspecified)", "label 0"),
    ("COc1ccc(N=Cc2c(O)[nH]c3ccccc23)cc1OC", "label 1"),
]

* * *

assay: Cycloheximide Counterscreen for Small Molecule Inhibitors of Shiga Toxin; details: cell reporter, cycloheximide protein synthesis inhibition counterscreen; stronger effect = higher value; also: read at 38.3 µM for the half of the compounds with a filed dose
In all, about 300,000 compounds went through this assay and about 37,000 (12%) were called active. The entries come from a sample that favours actives as a whole.
Item-by-item account of max response

# molecule, unitOfMeasurement, max response
measured = [
    ("Cc1cc(NC(=O)CCC(=O)N(CC(=O)NCC2CCCO2)c2ccccc2)no1 (centres undefined)", "%", -1.66),
    ("Cc1nc2ccccc2nc1N/N=C/c1ccc(O)cc1O", "%", 25),
    ("Cc1cccc(Nc2nc(-c3ccccc3)cs2)n1", "%", 56.2),
    ("CCOC(=O)c1ccc(NC(=O)c2ccc(NC(=O)C3CCCO3)cc2)cc1 (centres undefined)", "%", 13.9),
    ("CC(=O)Nc1cccc(NC(=O)c2c(-c3ccccc3)noc2C)c1", "%", -1.94),
    ("CCCOc1ccc2c3c(c(=O)oc2c1OCCC)CCC3", "%", -3.41),
    ("C=CCNC(=S)N/N=C/c1ccc(C)s1", "%", 31.5),
    ("COc1ccc(NC(=O)CC2COc3ccccc3O2)c(OC)c1 (centres undefined)", "%", 24.3),
    ("O=S(=O)(c1cccc2nonc12)N1CCN(c2cccc(Cl)c2)CC1", "%", 0.53),
    ("COc1ccc(NC(=O)CCC(=O)Nc2cc(OC)c(NC(=O)c3ccco3)cc2OC)c(OC)c1", "%", -4.97),
    ("O=c1cc(-c2ccc(O)cc2)oc2c([C@@H]3O[C@H](CO)[C@@H](O)[C@H](O)[C@H]3O)c(O)cc(O)c12", "%", -8.35),
    ("CC(=O)Nc1cccc(-c2cnc3ccccc3n2)c1", "%", 34.8),
    ("Cc1nn2c(=O)cc(COC(=O)c3ccc(NC(=O)C(C)(C)C)cc3)nc2s1", "%", -6.18),
    ("Cc1cc(N/N=C/c2ccccc2F)c2ccccc2n1", "%", -1.58),
    ("CN(CCNC(=O)c1cc2c(-c3ccccc3F)nn(C)c2s1)C1CCCCC1", "%", -2.34),
    ("CCc1cc2c(N3CCN(c4nnc(CC)s4)CC3)ncnc2s1", "%", -4.57),
    ("C/C(N)=C(/C#N)C(=O)COC(=O)c1cc(-c2ccc(C)cc2)nc2ccccc12", "%", 32.1),
    ("C=CCNC(=S)N/N=C/c1ccc(OCc2ccccc2)cc1", "%", -1.7),
    ("O=C(Nc1cccc(-c2nnc(-c3ccccc3)o2)c1)C1CCCO1 (centres undefined)", "%", 37.3),
    ("COc1ccc2c3c(c(=O)oc2c1OCC(=O)C(C)(C)C)CCCC3", "%", 35),
    ("CC(=O)N(C)c1ccc(NC(=O)Nc2cccc3ccccc23)cc1", "%", 33),
    ("COC(=O)c1ccccc1NC(=O)C1(S(=O)(=O)c2ccc(Cl)cc2)CC1", "%", -5.97),
    ("CC(=O)Nc1ccc(-c2csc(NC=C3C(=O)OC(C)(C)OC3=O)n2)cc1", "%", 19.8),
    ("Oc1ccc(/C=N/Nc2nc(-c3ccccc3F)nc3ccccc23)c(O)c1", "%", 15.1),
    ("N#Cc1cccc(Nc2c3c(nc4ccccc24)CCCC3)c1", "%", -8.08),
    ("COc1ccc(NC(=O)NCc2ccc3c(c2)OCO3)c(OC)c1", "%", -2.52),
    ("CC(C)(C)NC(=O)Cn1nnc(-c2ccccc2Cl)n1", "%", 53.5),
    ("Cc1cccc(NC(=O)Nc2nnc(-c3ccccc3)o2)c1", "%", 2.04),
    ("NC(=O)CCN1CCN(S(=O)(=O)/C=C/c2ccccc2)CC1", "%", -9.41),
    ("FC(F)(F)c1nc2ccccc2nc1N/N=C/c1ccc(Cl)cc1", "%", -0.973),
    ("O=C(CSc1nnc(-c2ccc(NS(=O)(=O)c3ccccc3)cc2)o1)NCC1CCCO1 (centres undefined)", "%", -1.17),
    ("COc1cc(C(=S)N2CCOCC2)cc(OC)c1OC(=O)c1cc([N+](=O)[O-])c(C)c([N+](=O)[O-])c1", "%", -3.02),
    ("O=C(NCCCn1ccnc1)C1CCCN(S(=O)(=O)c2cc(Cl)ccc2Cl)C1 (centres undefined)", "%", -4.82),
    ("Cc1ccc(/C=N/NC(=O)CN2CCN(Cc3ccccc3)CC2)s1", "%", 8.96),
    ("O=C(Cn1nnc(-c2ccccc2)n1)NCc1ccccc1", "%", -2.67),
    ("CCc1n[nH]c(=S)n1/N=C/c1c[nH]c2ccc(Br)cc12", "%", -1.29),
    ("O=C(NCc1ccccc1)C(=O)NCC1OCCN1S(=O)(=O)c1ccc(Br)cc1 (centres undefined)", "%", 9.31),
    ("Cc1cccc(C)c1NC(=O)CN1C(=O)C(C)Oc2ccccc21 (centres undefined)", "%", 1.84),
    ("Oc1ccc(/C=N/NC2=NCCCCC2)c(O)c1", "%", 42),
    ("CN1C(=O)/C(=C\\c2ccc(-c3ccccc3)o2)SC1=S", "%", 9.37),
    ("CC(=O)Nc1cccc(-c2csc(Nc3cccc(C)n3)n2)c1", "%", 50.7),
    ("O=C(CS(=O)(=O)c1cn(Cc2ccc(Cl)cc2)c2ccccc12)N1CCOCC1", "%", -4.25),
    ("Cc1ccc(NC2CCCN(C(=O)CCC3(C)CC3)C2)cc1C (centres undefined)", "%", 10.8),
    ("C/C(N)=C(/C#N)C(=O)COC(=O)c1cc(-c2cccc(Br)c2)nc2ccccc12", "%", 0.776),
]
